target: HCV NS3 protease domain (Hepatitis C virus genotype 1b); construct: The first 181 amino acids of NS3 (residues 1027-1207 of the viral polyprotein); hexa-histidine (C); made in house; host or cells: E. coli BL21/DE3 pLysS; test: biochemical; conditions: Enzyme Assay 1 (HCV NS3 Protease Domain Peptide Cleavage Assay) activity, apparent Ki class
Sequence (Q9WMX2 1027-1207, other chains not shown): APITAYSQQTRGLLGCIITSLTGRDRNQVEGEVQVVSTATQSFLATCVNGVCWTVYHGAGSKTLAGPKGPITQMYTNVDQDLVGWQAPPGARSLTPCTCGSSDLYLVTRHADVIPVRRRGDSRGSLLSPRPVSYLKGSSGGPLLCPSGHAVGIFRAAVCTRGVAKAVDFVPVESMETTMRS
Recorded Endpoint: Ki

(Q) Given CCC[C@H](NC(=O)[C@@H]1C[C@]2(CC(c3cccc(Cl)c3)=NO2)CN1C(=O)[C@@H](NC(=O)CSc1cccc2cccnc12)C(C)(C)C)C(=O)C(=O)NC1CC1 [Compound 454] , state its recorded Ki.
(A) 100 to 500 nM

(Q) Given CCC[C@H](NC(=O)[C@@H]1C[C@]2(CC(c3cccc(Cl)c3)=NO2)CN1C(=O)[C@@H](NC(=O)CC1CCCCC1)C(C)(C)C)C(=O)C(=O)NC1(c2ccccc2)CC1 [Compound 429] , state its recorded Ki.
(A) > 500 nM

(Q) Given CCC[C@H](NC(=O)[C@@H]1C[C@]2(CC(c3cccc(Cl)c3)=NO2)CN1C(=O)CN1C[C@H]2CCCC[C@H]2C[C@H]1C(=O)NC(C)(C)C)C(=O)C(=O)NC1CC1 [Compound 276] , state its recorded Ki.
(A) > 500 nM

(Q) Given CCC[C@H](NC(=O)[C@@H]1C[C@]2(CC(c3cccc(Cl)c3)=NO2)CN1C(=O)[C@@H](NC(=O)C(C)N1Cc2ccccc2C1=O)C(C)(C)C)C(=O)C(=O)NC1CC1 (stereo partly shown) [Compound 317] , state its recorded Ki.
(A) > 500 nM

(Q) Given CCC[C@H](NC(=O)[C@@H]1C[C@]2(CC(c3cccc(OC)c3)=NO2)CN1C(=O)[C@@H](NC(=O)CC1CCOCC1)C(C)(C)C)C(=O)C(=O)NC1CC1 [Compound 525] , state its recorded Ki.
(A) > 500 nM

(Q) Given CCC[C@H](NC(=O)[C@@H]1C[C@]2(CC(c3cccc(Cl)c3)=NO2)CN1C(=O)[C@@H](CC(=O)NC(C)C)C(C)C)C(=O)C(=O)NC1CC1 [Compound 280] , state its recorded Ki.
(A) > 500 nM

(Q) Given C=C[C@@H]1C[C@]1(NC(=O)[C@@H]1C[C@]2(CC(CC)=NO2)CN1C(=O)[C@@H](NC(=O)OC1CCCC1)C(C)(C)C)C(=O)NS(=O)(=O)C1CC1 [Compound 438] , state its recorded Ki.
(A) > 500 nM

(Q) Given CCC[C@H](NC(=O)[C@@H]1C[C@]2(CC(c3cccc(Cl)c3)=NO2)CN1C(=O)c1cccc(S(=O)(=O)N2CCc3ccccc3C2)c1)C(=O)C(=O)NC1CC1 [Compound 328] , state its recorded Ki.
(A) > 500 nM

(Q) Given CCC[C@H](NC(=O)[C@@H]1C[C@]2(CC(c3cccc(Cl)c3)=NO2)CN1C(=O)[C@@H](NC(=O)OCc1cccc(F)c1)C(C)(C)C)C(=O)C(=O)NC1CC1 [Compound 209] , state its recorded Ki.
(A) 100 to 500 nM

(Q) Given CCC[C@H](NC(=O)[C@@H]1C[C@]2(CC(c3cccc(Cl)c3)=NO2)CN1C(=O)[C@@H](NC(=O)[C@@H]1C[C@H]1c1ccccc1)C(C)(C)C)C(=O)C(=O)NC1CC1 [Compound 271] , state its recorded Ki.
(A) 100 to 500 nM
